assay text: Examination of the metabolism of acetylsalicylic acid: ASA and SA in plasma by HPLC after gel applied onto skin
Type: in vivo, New Zealand giant white rabbits
measurement context: male, New Zealand giant white, rabbit, in vivo, Salicylic acid and acetysalicylic acid contents of blood samples
reported property: concentration at 1.75 hours
Put your answer as a value accompanied by its unit after it.

Q) Entry under review: `CC(=O)Oc1ccccc1C(=O)O` . Reported concentration at 1.75 hours?
A) 76 ng/mL

* * *

assay text: Examination of the metabolism of acetylsalicylic acid: ASA and SA in plasma by HPLC after gel applied onto skin
Assay type: in vivo, New Zealand giant white rabbits
measurement context: male, New Zealand giant white, rabbit, in vivo, pH 6.5, Salicylic acid and acetysalicylic acid contents of blood samples
reported property: concentration at 4 h
Please state the number and follow it with the unit.

O=C(O)c1ccccc1O [SA, salicylic acid]; 12200 ng/mL

Please examine the following record next.
Q) Which value of concentration at 4 h has been reported for CC(=O)Oc1ccccc1C(=O)O [ASA, acetylsalicylic acid] in the records?
A) 4550 ng/mL

* * *

assay text: Examination of the metabolism of acetylsalicylic acid: ASA and SA in plasma by HPLC after gel applied onto skin
Format: in vivo, New Zealand giant white rabbits
measurement context: male, New Zealand giant white, rabbit, in vivo, Salicylic acid and acetysalicylic acid contents of blood samples
reported property: concentration at 1 hours
Kindly write the number and append the unit.

Q) Please report the recorded concentration at 1 hours for CC(=O)Oc1ccccc1C(=O)O [ASA, acetylsalicylic acid] .
A) 98 ng/mL
